Tested on: HOP-62 complex spheroids with HUVEC/MSC, viability
Protocol: Anticancer human tumor HOP-62 cell line growth inhibition [RAS];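 further: spheroids exposed to agents for seven days before readout; 100% = DMSO vehicle control viability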
Test Settings: second compound 0.1 µM; first compound 0.1 µM; active compounds read low
Source text: RAS pathway inhibitors in Combinations in Complex Spheroids A high-throughput screen of multi-cell type tumor spheroids was designed to identify active combinations of RAS pathway inhibitors and targeted small molecules. Complex spheroids include a stromal component modeled by human endothelial cells (HUVEC) and fibroblasts modeled by human mesenchymal stem cells (MSCs). […] Compounds. […] If the clinical Cmax for an agent had not been determined, the highest concentration tested was 10 microM. […]
Listed here are compounds together with their documented viability, T/C.
Quantity: viability, T/C (%)

INSERT INTO results (compound, endpoint_result) VALUES
  ('C=CC(=O)N1CCN(c2nc(OCC3CCCN3C)nc3c(F)c(-c4nc(N)cc(C)c4C(F)(F)F)c(Cl)cc23)C(C)C1 (configuration not stated) + C#Cc1c(F)ccc2cc(O)cc(-c3ncc4c(N5CC6CCC(C5)N6)nc(OCC56CCCN5CC(F)C6)nc4c3F)c12', 64.7),
  ('CCN1CCN(Cc2ccc(Nc3ncc(F)c(-c4cc(F)c5nc(C)n(C(C)C)c5c4)n3)nc2)CC1 + C=CC(=O)N1CCN(c2nc(OCC3CCCN3C)nc3c(F)c(-c4nc(N)cc(C)c4C(F)(F)F)c(Cl)cc23)C(C)C1', 51.3);
